Data origin, for the record: patent US20190105367A1

Consider the following compounds and their measured MIC readings.
System: S. epidermis 12228
Experiment: MIC, standard panel of Gram-positive and Gram-negative strains (Example 2)
Format: cell-based, Staphylococcus epidermis
Details: Staphylococcus
Readout label: MIC (µg/mL)

[[record]]
compound = "Cc1c(-c2ccc(CN)cc2)ccn2c(=O)c(C(=O)O)cc(C3CC3)c12 [Compound 5]"
readout_label = "MIC"
data_value = 0.06

[[record]]
compound = "Cc1c(-c2ccc(CN)c(F)c2)ccn2c(=O)c(C(=O)O)cc(C3CC3)c12 [Compound 4]"
readout_label = "MIC"
data_value = 0.06

[[record]]
compound = "Cc1c(-c2ccc(CN)cc2)c(F)cn2c(=O)c(C(=O)O)cc(C3CC3)c12 [Compound 6]"
readout_label = "MIC"
data_value = 0.03

[[record]]
compound = "Cc1c(-c2cc(Cl)c(N)c(Cl)c2)ccn2c(=O)c(C(=O)O)cc(C3CC3)c12 [Compound 3]"
readout_label = "MIC"
data_value = 0.008


====

Tested on: A. baumannii J2
Experiment: Preliminary MBC without and with sub-inhibitory polymyxin B (Example 4)
Format: cell-based, Acinetobacter baumannii
Conditions: Acinetobacter baumannii, J2, A. baumannii J2; +[…] PB; preliminary MBC; 2nd experiment; read-out: MBC
Readout label: MBC

[[record]]
molecule = "Cc1c(-c2ccc(N)cc2)c(F)cn2c(=O)c(C(=O)O)cc(C3CC3)c12 [Compound 7]"
data_value = "≤ 0.03 µg/mL"

[[record]]
molecule = "Cc1c(-c2ccc(N)cc2)ccn2c(=O)c(C(=O)O)cc(C3CC3)c12 [Compound 8]"
data_value = "≤ 0.03 µg/mL"

[[record]]
molecule = "C[C@@H](O)[C@H]1C(=O)N2C(C(=O)O)=C(S[C@@H]3CN[C@H](C(=O)N(C)C)C3)[C@H](C)[C@H]12 [Meropenem]"
data_value = "≤ 0.125 µg/mL"

[[record]]
molecule = "Cc1c(-c2cc(Cl)c(N)c(Cl)c2)ccn2c(=O)c(C(=O)O)cc(C3CC3)c12 [Compound 3]"
data_value = "≤ 0.03 µg/mL"

[[record]]
molecule = "NCC[C@H](O)C(=O)N[C@@H]1C[C@H](N)[C@@H](O[C@H]2O[C@H](CN)[C@@H](O)[C@H](O)[C@H]2O)[C@H](O)[C@H]1O[C@H]1O[C@H](CO)[C@@H](O)[C@H](N)[C@H]1O [Amikacin, reference compound]"
data_value = "0.5 µg/mL"

[[record]]
molecule = "Cc1c(-c2ccc(CN)c(F)c2)ccn2c(=O)c(C(=O)O)cc(C3CC3)c12 [Compound 4]"
data_value = "0.06 µg/mL"

[[record]]
molecule = "C[C@H]1COc2c(N3CCN(C)CC3)c(F)cc3c(=O)c(C(=O)O)cn1c23 [Levofloxacin, reference compound]"
data_value = "4 µg/mL"

[[record]]
molecule = "Cc1c(-c2cc(F)c(N)cc2F)ccn2c(=O)c(C(=O)O)cc(C3CC3)c12 [Compound 2]"
data_value = "≤ 0.03 µg/mL"


====

Test system: A. baumannii A473
Test: Preliminary MBC without and with sub-inhibitory polymyxin B (Example 4)
Assay type: cell-based, Acinetobacter baumannii
Conditions: Acinetobacter baumannii, A473, A. baumannii A473, +0.06 μg/ml PB, 2nd experiment, read-out: MBC
Readout label: MBC (µg/mL)

[[record]]
compound = "Cc1c(-c2cc(Cl)c(N)c(Cl)c2)ccn2c(=O)c(C(=O)O)cc(C3CC3)c12 [Compound 3]"
readout_label = "MBC"
data_value = 0.06

[[record]]
compound = "C[C@@H](O)[C@H]1C(=O)N2C(C(=O)O)=C(S[C@@H]3CN[C@H](C(=O)N(C)C)C3)[C@H](C)[C@H]12 [Meropenem]"
readout_label = "MBC"
data_value = 2

[[record]]
compound = "Cc1c(-c2ccc(N)cc2)c(F)cn2c(=O)c(C(=O)O)cc(C3CC3)c12 [Compound 7]"
readout_label = "MBC"
data_value = 0.06

[[record]]
compound = "Cc1c(-c2ccc(N)cc2)ccn2c(=O)c(C(=O)O)cc(C3CC3)c12 [Compound 8]"
readout_label = "MBC"
data_value = 0.5

[[record]]
compound = "NCC[C@H](O)C(=O)N[C@@H]1C[C@H](N)[C@@H](O[C@H]2O[C@H](CN)[C@@H](O)[C@H](O)[C@H]2O)[C@H](O)[C@H]1O[C@H]1O[C@H](CO)[C@@H](O)[C@H](N)[C@H]1O [Amikacin, reference compound]"
readout_label = "MBC"
data_value = 128

[[record]]
compound = "Cc1c(-c2ccc(CN)cc2)ccn2c(=O)c(C(=O)O)cc(C3CC3)c12 [Compound 5]"
readout_label = "MBC"
data_value = 1

[[record]]
compound = "Cc1c(-c2ccc(N)c(F)c2)ccn2c(=O)c(C(=O)O)cc(C3CC3)c12 [Compound 1]"
readout_label = "MBC"
data_value = 1

[[record]]
compound = "Cc1c(-c2ccc(CN)c(F)c2)ccn2c(=O)c(C(=O)O)cc(C3CC3)c12 [Compound 4]"
readout_label = "MBC"
data_value = 0.25

[[record]]
compound = "Cc1c(-c2ccc(CN)cc2)c(F)cn2c(=O)c(C(=O)O)cc(C3CC3)c12 [Compound 6]"
readout_label = "MBC"
data_value = 2

[[record]]
compound = "Cc1c(-c2cc(F)c(N)cc2F)ccn2c(=O)c(C(=O)O)cc(C3CC3)c12 [Compound 2]"
readout_label = "MBC"
data_value = 0.125


====

Tested on: A. baumannii A387
Experiment: Preliminary MBC without and with sub-inhibitory polymyxin B (Example 4)
Assay type: cell-based, Acinetobacter baumannii
Details: Acinetobacter baumannii, A387, A. baumannii A387, +0.06 μg/ml PB, 2nd experiment, read-out: MBC
Readout label: MBC

[[record]]
compound = "Cc1c(-c2ccc(N)cc2)c(F)cn2c(=O)c(C(=O)O)cc(C3CC3)c12 [Compound 7]"
readout_label = "MBC"
data_value = "≤ 0.03 µg/mL"

[[record]]
compound = "Cc1c(-c2ccc(N)cc2)ccn2c(=O)c(C(=O)O)cc(C3CC3)c12 [Compound 8]"
readout_label = "MBC"
data_value = "0.25 µg/mL"

[[record]]
compound = "Cc1c(-c2cc(Cl)c(N)c(Cl)c2)ccn2c(=O)c(C(=O)O)cc(C3CC3)c12 [Compound 3]"
readout_label = "MBC"
data_value = "≤ 0.03 µg/mL"


====

System: A. baumannii NCTC 13301
Assay: Preliminary MBC without and with sub-inhibitory polymyxin B (Example 4)
Assay type: cell-based, Acinetobacter baumannii
Conditions: Acinetobacter baumannii, NCTC13301, A. baumannii NCTC 13301; +[…] PB; preliminary MBC; 2nd experiment; read-out: MBC
Readout label: MBC (µg/mL)

[[record]]
compound = "C[C@@H](O)[C@H]1C(=O)N2C(C(=O)O)=C(S[C@@H]3CN[C@H](C(=O)N(C)C)C3)[C@H](C)[C@H]12 [Meropenem]"
scale_unit = "µg/mL"
bound_sign = "≤"
data_value = 0.125

[[record]]
compound = "Cc1c(-c2cc(Cl)c(N)c(Cl)c2)ccn2c(=O)c(C(=O)O)cc(C3CC3)c12 [Compound 3]"
scale_unit = "µg/mL"
bound_sign = "≤"
data_value = 0.03

[[record]]
compound = "Cc1c(-c2ccc(N)cc2)c(F)cn2c(=O)c(C(=O)O)cc(C3CC3)c12 [Compound 7]"
scale_unit = "µg/mL"
bound_sign = "≤"
data_value = 0.03

[[record]]
compound = "NCC[C@H](O)C(=O)N[C@@H]1C[C@H](N)[C@@H](O[C@H]2O[C@H](CN)[C@@H](O)[C@H](O)[C@H]2O)[C@H](O)[C@H]1O[C@H]1O[C@H](CO)[C@@H](O)[C@H](N)[C@H]1O [Amikacin, reference compound]"
scale_unit = "µg/mL"
bound_sign = "="
data_value = 64

[[record]]
compound = "Cc1c(-c2ccc(CN)c(F)c2)ccn2c(=O)c(C(=O)O)cc(C3CC3)c12 [Compound 4]"
scale_unit = "µg/mL"
bound_sign = "="
data_value = 0.25

[[record]]
compound = "C[C@H]1COc2c(N3CCN(C)CC3)c(F)cc3c(=O)c(C(=O)O)cn1c23 [Levofloxacin, reference compound]"
scale_unit = "µg/mL"
bound_sign = "="
data_value = 4

[[record]]
compound = "Cc1c(-c2cc(F)c(N)cc2F)ccn2c(=O)c(C(=O)O)cc(C3CC3)c12 [Compound 2]"
scale_unit = "µg/mL"
bound_sign = "≤"
data_value = 0.03

[[record]]
compound = "Cc1c(-c2ccc(N)cc2)ccn2c(=O)c(C(=O)O)cc(C3CC3)c12 [Compound 8]"
scale_unit = "µg/mL"
bound_sign = "="
data_value = 0.5


====

Tested on: A. baumannii A401
Experiment: MIC without and with sub-inhibitory polymyxin B (Example 4)
Format: cell-based, Acinetobacter baumannii
Settings: Acinetobacter baumannii, A401, read-out: MIC +0.06 μg/ml PB, A baumannii A 401; +0.06 μg/ml polymyxin B; 1st experiment
Readout label: MIC (µg/mL)

[[record]]
compound = "Cc1c(-c2cc(F)c(N)cc2F)ccn2c(=O)c(C(=O)O)cc(C3CC3)c12 [Compound 2]"
system_name = "A. baumannii A401"
readout_label = "MIC"
scale_unit = "µg/mL"
bound_sign = "≤"
data_value = 0.03

[[record]]
compound = "Cc1c(-c2ccc(CN)c(F)c2)ccn2c(=O)c(C(=O)O)cc(C3CC3)c12 [Compound 4]"
system_name = "A. baumannii A401"
readout_label = "MIC"
scale_unit = "µg/mL"
bound_sign = "="
data_value = 4

[[record]]
compound = "C[C@@H](O)[C@H]1C(=O)N2C(C(=O)O)=C(S[C@@H]3CN[C@H](C(=O)N(C)C)C3)[C@H](C)[C@H]12 [Meropenem]"
system_name = "A. baumannii A401"
readout_label = "MIC"
scale_unit = "µg/mL"
bound_sign = "="
data_value = 4

[[record]]
compound = "Cc1c(-c2cc(Cl)c(N)c(Cl)c2)ccn2c(=O)c(C(=O)O)cc(C3CC3)c12 [Compound 3]"
system_name = "A. baumannii A401"
readout_label = "MIC"
scale_unit = "µg/mL"
bound_sign = "="
data_value = 0.125

[[record]]
compound = "Cc1c(-c2ccc(N)cc2)ccn2c(=O)c(C(=O)O)cc(C3CC3)c12 [Compound 8]"
system_name = "A. baumannii A401"
readout_label = "MIC"
scale_unit = "µg/mL"
bound_sign = "≤"
data_value = 0.03

[[record]]
compound = "Cc1c(-c2ccc(N)c(F)c2)c(F)cn2c(=O)c(C(=O)O)cc(C3CC3)c12 [Compound 17]"
system_name = "A. baumannii A401"
readout_label = "MIC"
scale_unit = "µg/mL"
bound_sign = "="
data_value = 0.5

[[record]]
compound = "Cc1c(-c2ccc(CN)cc2)c(F)cn2c(=O)c(C(=O)O)cc(C3CC3)c12 [Compound 6]"
system_name = "A. baumannii A401"
readout_label = "MIC"
scale_unit = "µg/mL"
bound_sign = "="
data_value = 4

[[record]]
compound = "Cc1c(-c2ccc(N)c(F)c2)ccn2c(=O)c(C(=O)O)cc(C3CC3)c12 [Compound 1]"
system_name = "A. baumannii A401"
readout_label = "MIC"
scale_unit = "µg/mL"
bound_sign = "≤"
data_value = 0.03

[[record]]
compound = "Cc1c(-c2ccc(CN)cc2)ccn2c(=O)c(C(=O)O)cc(C3CC3)c12 [Compound 5]"
system_name = "A. baumannii A401"
readout_label = "MIC"
scale_unit = "µg/mL"
bound_sign = "="
data_value = 2

